Data origin, for the record: patent US20210380703A1

Target: Human Fc (human)
Assay: ELISA, negative control

# Binder, optical density [OD]
measured = [
    ("369_A03 (antibody, V domains shown) VH: EVQLLESGGGLVQPGGSLRLSCAASGFTFSSYGMNWVRQAPGKGLEWVSNINYNGGYTGYADSVKGRFTISRDNSKNTLYLQMNSLRAEDTAVYYCARSANWHDTALDYWGQGTLVTVSS VL: DIQMTQSPSSLSASVGDRVTITCRASQSILTYLNWYQQKPGKAPKLLIYAVTSRHSGVPSRFSGSGSGTDFTLTISSLQPEDFATYYCQQGYDLPLTFGGGTKVEIK", 0.347),
    ("373_C04 (antibody, V domains shown) VH: EVQLLESGGGLVQPGGSLRLSCAASGFTFSSYSMNWVRQAPGKGLEWVANINYNSGYTGYADSVKGRFTISRDNSKNTLYLQMNSLRAEDTAVYYCARSANWHDTALDYWGQGTLVTVSS VL: DIQMTQSPSSLSASVGDRVTITCRASQSIISYVNWYQQKPGKAPKLVIYAVTSRASGVPSRFSGSGSGTDFTLTISSLQPEDFATYYCQQSYNSPLTFGGGTKVEIK", 0.157),
    ("374_B04 (antibody, V domains shown) VH: EVQLLESGGGLVQPGGSLRLSCAASGFTFSSYSMNWVRQAPGKGLEWVSNINYNSGYTGYADSVKGRFTISRDNSKNTLYLQMNSLRAEDTAVYYCARSANWHDTALDYWGQGTLVTVSS VL: DIQMTQSPSSLSASVGDRVTITCRASQSIVSYLNWYQQKPGKAPKLLIYAVTSRASGVPSRFSGSGSGTDFTLTISSLQPEDFATYYCQQSYESPLTFGGGTKVEIK", 0.222),
]
